FYI, the data here is from ChEMBL document CHEMBL6074659.

- experimentalDetails: Stability in human serum assessed as parent compound remaining incubated at 24 hrs by RP-HPLC analysis
- Type: ADME, cell-free
- experimentalConditions: human serum, read-out: Stability
Starred links: 1 amine or outer side, 2 acyl side, 3 side chain; linkers in the order of their positions; H or OH if unused. Positions of bridges follow the written chain, without caps; N, C: chain ends. Non-standard residues stand in square brackets, D forms with d. Residues, ends and D or L forms follow the SMILES beside them. Dap = NC[C@H](N)C(=O)O; CH2 = C([*:1])[*:2]
As shown below, each of these compounds has a reported remaining at 24 h value.
Number only, in %; omit the unit.

| compound | unitOfMeasurement | resultValue |
| --- | --- | --- |
| CC[C@H](C)[C@H](NC(=O)[C@H](CC(=O)O)NC(=O)[C@@H]1CCCN1C(=O)[C@H](CC(N)=O)NC(=O)[C@H](CC(N)=O)NC(=O)[C@@H](NC(=O)[C@H](CO)NC(=O)[C@H](CS)NC(=O)[C@H](C)NC(=O)[C@@H]1CCCN1C(=O)[C@H](Cc1cnc[nH]1)NC(=O)[C@H](CN)NC(=O)[C@H](CS)NC(=O)[C@H](CS)NC(=O)CN)C(C)C)C(=O)N[C@@H](CS)C(N)=O (HELM PEPTIDE1{G.C.C.[NC[C@H](N[*:1])C(=O)[*:2]].H.P.A.C.S.V.N.N.P.D.I.C.[am]}$$$$V2.0) | % | 58.6 |

Task item: Data request, read-out remaining at 24 h, for CC[C@H](C)[C@@H]1NC(=O)[C@H](CC(=O)O)NC(=O)[C@@H]2CCCN2C(=O)[C@H](CC(N)=O)NC(=O)[C@H](CC(N)=O)NC(=O)[C@H](C(C)C)NC(=O)[C@H](CO)NC(=O)[C@@H]2CSCSC[C@@H]3NC(=O)CNC(=O)[C@@H](N)CCC(=O)NC[C@@H](C(N)=O)NC(=O)[C@H](CSSC[C@H](NC3=O)C(=O)N[C@@H](CN)C(=O)N[C@@H](Cc3cnc[nH]3)C(=O)N3CCC[C@H]3C(=O)N[C@@H](C)C(=O)N2)NC1=O (H-EGCC[Dap]HPACSVNNPDIC[Dap]-NH2; lactam 1-18; linker 3-9 via CH2; disulfide 4-17)
Reply: 57.3
